Target: ATP-binding cassette sub-family B member 6 (Homo sapiens) (UniProt Q9NP58)
Sequence (Q9NP58 whole entry, looked up): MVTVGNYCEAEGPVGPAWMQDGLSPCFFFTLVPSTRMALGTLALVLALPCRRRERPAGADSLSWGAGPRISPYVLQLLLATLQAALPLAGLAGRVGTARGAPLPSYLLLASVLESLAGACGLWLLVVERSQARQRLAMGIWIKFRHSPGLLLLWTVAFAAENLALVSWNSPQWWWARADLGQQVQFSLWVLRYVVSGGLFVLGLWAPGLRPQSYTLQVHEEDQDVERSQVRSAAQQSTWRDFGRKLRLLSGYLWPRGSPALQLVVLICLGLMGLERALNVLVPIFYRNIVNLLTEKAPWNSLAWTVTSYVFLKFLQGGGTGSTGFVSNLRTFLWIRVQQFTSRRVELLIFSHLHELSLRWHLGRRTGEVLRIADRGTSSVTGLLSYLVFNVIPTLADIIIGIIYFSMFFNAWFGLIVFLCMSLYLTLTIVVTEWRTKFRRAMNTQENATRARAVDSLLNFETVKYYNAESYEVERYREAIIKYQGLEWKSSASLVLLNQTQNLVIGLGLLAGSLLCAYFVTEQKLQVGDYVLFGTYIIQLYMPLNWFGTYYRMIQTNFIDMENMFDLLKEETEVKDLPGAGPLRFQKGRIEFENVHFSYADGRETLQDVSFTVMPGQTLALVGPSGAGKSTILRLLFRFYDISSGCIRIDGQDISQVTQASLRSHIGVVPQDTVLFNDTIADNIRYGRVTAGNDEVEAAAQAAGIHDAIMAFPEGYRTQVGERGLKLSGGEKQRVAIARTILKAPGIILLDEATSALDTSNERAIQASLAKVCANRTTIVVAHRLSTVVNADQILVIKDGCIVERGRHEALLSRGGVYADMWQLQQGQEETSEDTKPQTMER
Assay: blockers of ABCB6-driven porphyrin uptake – K562-ABCB6 cells, flow cytometry, validation set, pilot screen (AID 588550);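 also: 0% = DMSO wells and 100% = benzethonium chloride 70 µM positive control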
Details: K562-ABCB6 porphyrin accumulation, 1 h, at 10 µM, active compounds read high
experimental-endpoint: inhibition (%)
Give a bare numeral; the unit % is implied.

Consider the following illustrative entries.
1. O=c1c(-c2ccccc2)c(O)c2cccc3c2n1CCC3 = 1
2. COc1ccc(NC(=O)C2CCCN2C(=O)OC(C)(C)C)cc1 (stereo not drawn) = 8
3. N#C/C(=C\c1ccc(O)c(O)c1)C(=O)NCCCc1ccccc1 = -1

The compound listed as CC(NC(=O)c1cccnc1)C(=O)O (stereo not drawn) has a reported inhibition of 8

The compound listed as Cc1cn([C@H]2C=C[C@@H](CO)O2)c(=O)[nH]c1=O has a reported inhibition of 3

The compound listed as O=C(Nc1cccc(Oc2c(F)c(F)c(F)c(F)c2F)c1)N1C[C@@H]2C[C@@H](C1)c1cccc(=O)n1C2 has a reported inhibition of -6

The compound listed as CCOc1ccc(N2C(=O)CC(NCCNc3ccc([N+](=O)[O-])cn3)C2=O)cc1 (stereo not drawn) has a reported inhibition of 8

The compound listed as CCc1ccc(/C=C2\Oc3cc(OC(=O)N4CCOCC4)ccc3C2=O)cc1 has a reported inhibition of 0

The compound listed as OCC(O)CN1CCN(c2ccccc2)CC1 (stereo not drawn) has a reported inhibition of 9

The compound listed as CC1(C)Oc2ccc(C#N)cc2[C@@H](N2CCCC2=O)[C@@H]1O has a reported inhibition of 6

The compound listed as CC12COC3(C(=O)Nc4ccc(F)cc4)CC1CCC32C (stereo not drawn) has a reported inhibition of 10

The compound listed as CC(=O)OC[C@H]1O[C@@H](Sc2cccc3cccnc23)[C@H](OC(C)=O)[C@@H](OC(C)=O)[C@H]1OC(C)=O has a reported inhibition of -2

The compound listed as Clc1ccc2c(c1)[C@H]1OCC[C@H]1[C@@H](c1ccco1)N2 has a reported inhibition of -23

The compound listed as CC(=O)[C@@H]1[C@@H](C(=O)c2ccc(C)cc2)[C@]2(C(=O)Nc3ccccc32)[C@H]2C=Cc3cc(F)ccc3N12 has a reported inhibition of 2

The compound listed as COc1ccc(CNC(=O)C2CCCN2C)cc1OC (stereo not drawn) has a reported inhibition of -5

The compound listed as c1ccc(CNc2ncnc3nc[nH]c23)cc1 has a reported inhibition of 3

The compound listed as O=C(O)CCn1cnc2ccccc2c1=O has a reported inhibition of 7

The compound listed as Cn1c(=O)c2nc3ccccc3nc2n(C)c1=O has a reported inhibition of 2

The compound listed as CC12CCC(C(=O)N(CCC#N)CCC#N)(CC1=O)C2(C)C (stereo not drawn) has a reported inhibition of 9

* * *

Experiment: reduced mouse 2C T cell binding to pMHC/ICAM-1 vesicles – MLPCN validation set, flow cytometry, LFA-1/ICAM-1 modulator project, pilot screen (AID 2523);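 also: mean PE anti-B7-1 fluorescence of CD8+ cells relative to row control; 100% = QL9-loaded vesicles with DMSO vehicle in the same plate row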
Conditions: 2C mouse CD8+ T cells, at 7 µM, active compounds read low
Calls of active or inactive are those of the source.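 Rule for the calls: active = response below a set limit, under 55% cells CD8-positive and vesicle-bound, and CD8 cells' 90th-percentile brightness under 279; inactive = the rest.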
experimental-endpoint: vesicle binding response

1. COc1ccc(CC(=O)Nc2cccc(C(=O)Nc3ccccc3C(=O)O)c2)cc1OC = 181% (inactive)
2. CN(C)CC/C=C1\c2ccccc2Sc2ccc(Cl)cc21 = 157% (inactive)
3. CCCn1c(=O)c2[nH]c(C3CCCC3)nc2n(CCC)c1=O = 193% (inactive)
4. C[C@]12CC[C@@H]3c4ccc(O)cc4CC[C@H]3[C@@H]1CC[C@@H]2OC(=O)CCC(=O)O = 223% (inactive)
5. O=C(/C=C/c1ccc2c(c1)OCCCO2)c1ccc2ccccc2c1O = 215% (inactive)
6. CN1/C(=C\C=Nc2ccccc2)C(C)(C)c2ccccc21 = 196% (inactive)

The molecule listed as CN(C)CCOC(=O)C(c1ccccc1)C1(O)CCCC1 (configuration not stated) has a reported vesicle binding response of 249% (inactive)

The molecule listed as CC(=O)[C@H]1CC[C@H]2[C@@H]3CCC4=CC(=O)CC[C@]4(C)[C@H]3[C@H](O)C[C@]12C has a reported vesicle binding response of 64.9% (inactive)

The molecule listed as CCc1nc(N)nc(N)c1-c1ccc(Cl)cc1 has a reported vesicle binding response of 209% (inactive)

The molecule listed as O=C1c2ccccc2C2(c3ccccc3)NCCN12 (configuration not stated) has a reported vesicle binding response of 122% (inactive)
